The origin of these recorded values is the supplement of paper PMC9732359.

Assay: protein stability index of a GFP-peptide fusion (yeast GPS) (PSI 1-4); higher = more stable; sorted into four equal gates, so the index is relative within each strain
Settings: ubr1∆
# protein stability index listing for each entry below

Use the examples below as a reference point.
AYSSRFQTPFRRRREGK [RPL5] :: 3.04
GPGFKFVDLNEKELQNE [SRB4] :: 2.85
LKTFHFAGVASMNVTLG [RPO31] :: 1.98
QLQKILESLKPIDDTMT [MTW1] :: 2.59
PPTTSNLIIFLYKFNGW [YML103C/NUP188] :: 2.53

--- query ---
Problem: Endpoint output: protein stability index of TFIKDCLFTKCLEDPEK [POP4] . Value?
Solution: 1.83

###

# protein stability index listing for each entry below
Test: protein stability index of a GFP-peptide fusion (yeast GPS) (PSI 1-4); higher = more stable; sorted into four equal gates, so the index is relative within each strain
Conditions: ubr1∆
// return a plain number; no unit text

KRQAYAVSEKAGHQTSA [RPL4A] :: 2.34

Problem: Endpoint output: protein stability index of EIDDTEAEVTAEVNGGD [BRR2] . Value?
Solution: 3.16

Problem: Endpoint output: protein stability index of FSERAAMFAALQQKQQQ [SWI1] . Value?
Solution: 2.01

Problem: Endpoint output: protein stability index of HKLVFVVRIKGINKIPP [RPL7A] . Value?
Solution: 1.64

Problem: Endpoint output: protein stability index of PEDPYFNTLVRIMSTRC [DIS3] . Value?
Solution: 1.92

Problem: Endpoint output: protein stability index of KGVGRRYSNLVCKKADV [RPS18A] . Value?
Solution: 2.49

Problem: Endpoint output: protein stability index of VYSKQATFLLTDIKDTL [MCD1] . Value?
Solution: 2.3

###

# protein stability index listing for each entry below
Test: protein stability index of a GFP-peptide fusion (yeast GPS) (PSI 1-4); higher = more stable; sorted into four equal gates, so the index is relative within each strain
Details: san1∆

DDDQIESLKKSPIFEVL [ARP9] :: 3.06
LRADKLYEKLKQEIMMS [ISW2] :: 1.78
KNPRVTKEYLVQNLRSW [CSN9] :: 3.16

--- query ---
Problem: Endpoint output: protein stability index of GMRVGVDRSKYNIELPL [RPT1] . Value?
Solution: 3.52

###

Assay: protein stability index of a GFP-peptide fusion (yeast GPS) (PSI 1-4); higher = more stable; sorted into four equal gates, so the index is relative within each strain
Conditions: san1∆
Attribute Measured: protein stability index

Problem: Endpoint output: protein stability index of HTVTNSPNPTLQPVIPG [SNF5] . Value?
Solution: 2.53

###

Assay: protein stability index of a GFP-peptide fusion (yeast GPS) (PSI 1-4); higher = more stable; sorted into four equal gates, so the index is relative within each strain
Details: pdr5∆
# protein stability index listing for each entry below
// return a plain number; no unit text

Use the examples below as a reference point.
KLRSELGYKDTSVIQDL [BRR2] :: 2.22
IPSPLSSTKPPGSVNSA [NUT1] :: 2.84
FLARVIKEKFDEFIKTH [IRR1] :: 2.83
FLKYYGAHKFLDTYLPE [SIR2] :: 1.77
AVIESVVNQPTGKIVDV [FAS1] :: 2.57

Problem: Endpoint output: protein stability index of SDDYDNEGAASSNPQSA [SMC1] . Value?
Solution: 3.42

Problem: Endpoint output: protein stability index of AKTLIPSLNNKISDDEL [RPB4] . Value?
Solution: 3.1

Problem: Endpoint output: protein stability index of EQQPEQPQETEEHHEEE [RPT4] . Value?
Solution: 3.28

Problem: Endpoint output: protein stability index of NSITSGGLKSCDLDFPL [YDL116W/NUP84] . Value?
Solution: 3.11

Problem: Endpoint output: protein stability index of NTLEFIIEQLSIAAERY [YCG1] . Value?
Solution: 2.62

Problem: Endpoint output: protein stability index of STTAALQSISSLTISLY [RPN7] . Value?
Solution: 1.82

Problem: Endpoint output: protein stability index of YQKNKPYPKSRYNRAVP [RPL10] . Value?
Solution: 3.06

Problem: Endpoint output: protein stability index of GKVVGDKWESYLNLLQE [RPB10] . Value?
Solution: 2.65

Problem: Endpoint output: protein stability index of INYQVDSKLLPKNIEPP [SWI3] . Value?
Solution: 2.81

Problem: Endpoint output: protein stability index of KYVHVSEVGNCSGSGMG [FAS2] . Value?
Solution: 3.08
